tested on: FXR:RXRa (NR concentration 270 nM, RXRa partner concentration 90 nM); test: PBM binding z-score (relative to random genomic background probes); higher = stronger binding; sequences stand for … in GC…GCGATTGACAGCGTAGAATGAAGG
Outcome Measure: PBM binding z-score

Residues: GCGACTGGGGCAAAGCAGGATACCATAAGGTTGG
Outcome Measure: PBM binding z-score
Observed Value: 0.421
//
Residues: ACTATTAGTTGAGACGAGTGCAACCGATAGGTTG
Outcome Measure: PBM binding z-score
Observed Value: -0.26
//
Residues: CCTATGAGTTGACCATAAGGGCAACCGAAGCTCG
Outcome Measure: PBM binding z-score
Observed Value: 0.925
//
Residues: CGTCCAAAGTCAGCAGGTCAGTGAAAGCGACGTG
Outcome Measure: PBM binding z-score
Observed Value: 0.237
//
Residues: CAAACTAGGTCAGAGGTCAAAGTCGAGCCAACCA
Outcome Measure: PBM binding z-score
Observed Value: 7.41
//
Residues: CCTCGGAGGACAACAGGAGGTCAGAGCTGCCAGA
Outcome Measure: PBM binding z-score
Observed Value: 1.12
//
Residues: CTCGAAAGGTCGGTTCAGGTGAGTATACGGATAA
Outcome Measure: PBM binding z-score
Observed Value: 2.48
//
Residues: CCTACTGGGCCAAAAAGGTCATTGACGCCGATAA
Outcome Measure: PBM binding z-score
Observed Value: 3.87
//
Residues: GGAACAAGGGCATTCGAGTTGATAGCATGGCGAT
Outcome Measure: PBM binding z-score
Observed Value: 1.63
//
Residues: CCTACTGAGCCATCAGGTCATTGATATCAACGTT
Outcome Measure: PBM binding z-score
Observed Value: 1.58
//
Residues: AGAATGAGGTTAATATCAGGGAAACAGAATACAT
Outcome Measure: PBM binding z-score
Observed Value: 1.64
//
Residues: CCTGCTATGTCAATGGTCAGCTAAAGCAGCTCGC
Outcome Measure: PBM binding z-score
Observed Value: -0.419
//
Residues: TGAATGAGGTTAAAGATCAGGGAGCGTGGCGTCG
Outcome Measure: PBM binding z-score
Observed Value: 2.85
//
Residues: CCTACTGGGCCAAATGTCATTGATTCCAATGCTC
Outcome Measure: PBM binding z-score
Observed Value: 0.068
//
Residues: TGTCAAAGTTCAAATGTAACGTAAGTATCCACAC
Outcome Measure: PBM binding z-score
Observed Value: 7.51

----------
In this section, each of the sequences is paired with its reported PBM binding z-score.
system: PPARg:RXRa 30nM:10nM, anti-RXR (NR concentration 30 nM, RXRa partner concentration 10 nM); assay: PBM binding z-score (relative to random genomic background probes); higher = stronger binding; sequences stand for … in GC…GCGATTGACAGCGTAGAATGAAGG

Residues: CCTACTGGGCCAAGAAAGGTCATTGATTCAGTGA
Test Target: PPARg:RXRa 30nM:10nM, anti-RXR (NR concentration 30 nM, RXRa partner concentration 10 nM)
PBM binding z-score: 0.919

Residues: GCTGCTAGGTCAGGTTGGTCAGCTTACGGGTACG
Test Target: PPARg:RXRa 30nM:10nM, anti-RXR (NR concentration 30 nM, RXRa partner concentration 10 nM)
PBM binding z-score: -0.57

Residues: CGAACGAGGGCATGAGTTGATAGTAAATGCCGAT
Test Target: PPARg:RXRa 30nM:10nM, anti-RXR (NR concentration 30 nM, RXRa partner concentration 10 nM)
PBM binding z-score: 0.122

Residues: CCTACTGGGCCATCAGGTAATTGATATCAACGTT
Test Target: PPARg:RXRa 30nM:10nM, anti-RXR (NR concentration 30 nM, RXRa partner concentration 10 nM)
PBM binding z-score: 0.313

Residues: ATACCAAGGTGATCGTGAGGTCGTCGATACTAAC
Test Target: PPARg:RXRa 30nM:10nM, anti-RXR (NR concentration 30 nM, RXRa partner concentration 10 nM)
PBM binding z-score: 0.0309

Residues: CCGACTGGGGCAAATGTTACCATACTCAGTACGA
Test Target: PPARg:RXRa 30nM:10nM, anti-RXR (NR concentration 30 nM, RXRa partner concentration 10 nM)
PBM binding z-score: 3.62

Residues: GCGACTGGGGCATCAGCAGGTTACCAGAACTTAA
Test Target: PPARg:RXRa 30nM:10nM, anti-RXR (NR concentration 30 nM, RXRa partner concentration 10 nM)
PBM binding z-score: -0.35

Residues: TCGAGAAGGTTACCAATGGGGCATTCAGCTTTCT
Test Target: PPARg:RXRa 30nM:10nM, anti-RXR (NR concentration 30 nM, RXRa partner concentration 10 nM)
PBM binding z-score: 2

Residues: ATCTCTATGTAAGACTCAGTTCAGTGAAGAACGC
Test Target: PPARg:RXRa 30nM:10nM, anti-RXR (NR concentration 30 nM, RXRa partner concentration 10 nM)
PBM binding z-score: -0.162

Residues: ATCTCTCGGTAAAAGTTCAGTGAATCCCGAGGAT
Test Target: PPARg:RXRa 30nM:10nM, anti-RXR (NR concentration 30 nM, RXRa partner concentration 10 nM)
PBM binding z-score: 3.76

Residues: TCTCGGAGGACAAGAAAGGTCAGAGCTCGACATC
Test Target: PPARg:RXRa 30nM:10nM, anti-RXR (NR concentration 30 nM, RXRa partner concentration 10 nM)
PBM binding z-score: 2.52

Residues: TCTAGTTGGTCACGTAGGTCACACACGACGGGTA
Test Target: PPARg:RXRa 30nM:10nM, anti-RXR (NR concentration 30 nM, RXRa partner concentration 10 nM)
PBM binding z-score: 3.43

Residues: CCTGCTAGGTCATGGTCAGCTTATCTACAGTATG
Test Target: PPARg:RXRa 30nM:10nM, anti-RXR (NR concentration 30 nM, RXRa partner concentration 10 nM)
PBM binding z-score: 0.566

Residues: CCTACTGGGCCATTCAGAGGTCATTTATCATATG
Test Target: PPARg:RXRa 30nM:10nM, anti-RXR (NR concentration 30 nM, RXRa partner concentration 10 nM)
PBM binding z-score: 0.841

Residues: TAGCCTAGGTCAGATCGGGCCAATATACGCTATA
Test Target: PPARg:RXRa 30nM:10nM, anti-RXR (NR concentration 30 nM, RXRa partner concentration 10 nM)
PBM binding z-score: -0.00847

Residues: CCGAATAGGTTATGGGGCATTCAGGCAACGGTGA
Test Target: PPARg:RXRa 30nM:10nM, anti-RXR (NR concentration 30 nM, RXRa partner concentration 10 nM)
PBM binding z-score: 0.896

Residues: CTGCCAAGGTGAACAAGGTCGTTGATTACTATTC
Test Target: PPARg:RXRa 30nM:10nM, anti-RXR (NR concentration 30 nM, RXRa partner concentration 10 nM)
PBM binding z-score: -0.107

Residues: CTACCAAGGTTAACAAGGTCGTTGATTACTATTC
Test Target: PPARg:RXRa 30nM:10nM, anti-RXR (NR concentration 30 nM, RXRa partner concentration 10 nM)
PBM binding z-score: 0.841

Residues: GCAAATAGGTAATACAAGGTGAAAGTCCGATTGT
Test Target: PPARg:RXRa 30nM:10nM, anti-RXR (NR concentration 30 nM, RXRa partner concentration 10 nM)
PBM binding z-score: 0.599
